Read-out: Matrix Metallopeptidase 1 (MMP1), MMP1 (gene 4312)
Experiment: BSK_BE3C_MMP1: BioMAP Diversity Plus: BE3C Assay for Matrix Metallopeptidase 1 (MMP1) Biomarker Activity (AID 2283024)
Conditions: primary human bronchial epithelial cells; actives raise or lower the signal
Calls of active or inactive are those of the source. The calls were made as follows: active = hit-call score of the fitted dose curve at least 0.9, where 1 is the maximum; inactive = score below 0.9.
Write down the outcome that applies. Available outcomes: active, inactive

*Q* Hi team, can someone confirm the assay call for "COC(=O)N(OC)c1ccccc1COc1ccn(-c2ccc(Cl)cc2)n1" ?
*A* inactive

*Q* Hi team, can someone confirm the assay call for "CC(C)Oc1cc(-n2nc(C(C)(C)C)oc2=O)c(Cl)cc1Cl" ?
*A* active

*Q* Hi team, can someone confirm the assay call for N#Cc1nn(-c2c(Cl)cc(C(F)(F)F)cc2Cl)c(N)c1S(=O)C(F)(F)F (stereo not given) ?
*A* inactive

*Q* Hi team, can someone confirm the assay call for "CNC(=O)ON=CC(C)(C)SC" ?
*A* inactive

*Q* Hi team, can someone confirm the assay call for CC(Oc1ccc(Cl)cc1Cl)C(=O)O (stereo not given) ?
*A* inactive

*Q* Hi team, can someone confirm the assay call for "O=C(O)COc1nc(Cl)c(Cl)cc1Cl" ?
*A* inactive

*Q* Hi team, can someone confirm the assay call for OC(c1ccc(Cl)cc1)(c1cncnc1)c1ccccc1Cl (stereo not given) ?
*A* inactive

*Q* Hi team, can someone confirm the assay call for "O=C(O)c1nc(Cl)ccc1Cl" ?
*A* inactive

*Q* Hi team, can someone confirm the assay call for "COc1ccc(C(c2ccc(OC)cc2)C(Cl)(Cl)Cl)cc1" ?
*A* active

*Q* Hi team, can someone confirm the assay call for "CCCN(CCC)c1c([N+](=O)[O-])cc(S(N)(=O)=O)cc1[N+](=O)[O-]" ?
*A* active

*Q* Hi team, can someone confirm the assay call for CCCCC(CC)COC(=O)c1ccccc1C(=O)OCC(CC)CCCC (stereo not given) ?
*A* inactive

*Q* Hi team, can someone confirm the assay call for "COc1nc(C)nc(NC(=O)NS(=O)(=O)c2ccccc2CCC(F)(F)F)n1" ?
*A* inactive

*Q* Hi team, can someone confirm the assay call for "CCNc1nc(Cl)nc(NCC)n1" ?
*A* inactive

*Q* Hi team, can someone confirm the assay call for "CCCCOC(=O)c1ccccc1C(=O)OCCCC" ?
*A* inactive

*Q* Hi team, can someone confirm the assay call for "CCNc1nc(Cl)nc(NC(C)C)n1" ?
*A* inactive

*Q* Hi team, can someone confirm the assay call for "CO/C=C(/C(=O)OC)c1ccccc1Oc1cc(Oc2ccccc2C#N)ncn1" ?
*A* inactive

*Q* Hi team, can someone confirm the assay call for "Oc1ccccc1-c1ccccc1" ?
*A* inactive

*Q* Hi team, can someone confirm the assay call for "CN(C)C(=S)SSC(=S)N(C)C" ?
*A* active

*Q* Hi team, can someone confirm the assay call for "CCOc1cc(Oc2ccc(C(F)(F)F)cc2Cl)ccc1[N+](=O)[O-]" ?
*A* active

*Q* Hi team, can someone confirm the assay call for "COc1nc(C)nc(NC(=O)NS(=O)(=O)c2ccccc2Cl)n1" ?
*A* inactive
